# measurementNotes: Acute toxicity test after single oral administration, rat
# reportedConditions: in vivo, rat (SD strain, 6 weeks old), read-out: 50% lethal dose (LD50)
# Description: These compounds have low toxicities and thus may be sufficiently used for medical products. For example, the 50% lethal dose (LD50) in the acute toxicity tests after single oral administration of 4 brome-5-(3-ethoxy-4-methoxybenzylamino)-3(2H)-pyridazinone as a typical compound thereof, was 2,000 mg/kg with respect to each of mouse (ICR strain, 6 weeks old), rat (SD strain, 6 weeks old) and dog (beagle, 6 months old).
reportedMetric: LD50 (mg/kg)

CCOc1cc(CNc2cn[nH]c(=O)c2Br)ccc1OC ... 2000

====

# measurementNotes: Acute toxicity test after single oral administration, dog
# reportedConditions: in vivo, dog (beagle, 6 months old), read-out: 50% lethal dose (LD50)
reportedMetric: LD50 (mg/kg)

CCOc1cc(CNc2cn[nH]c(=O)c2Br)ccc1OC ... 2000

All figures here come from patent US5219854A.
